Listed next: entries and their corresponding z-score.
- target: Luciferin 4-monooxygenase (Photinus pyralis)
- experiment-description: firefly luciferase enzyme inhibitors, primary screen, biochemical, luminescence, purified enzyme, 2006 set (AID 1141);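 note: cell-free assay with purified firefly luciferase at 100 ng per well in PBS; test concentration not given here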
- conditions-used: SteadyGlo luminescence, 30 min, higher = more signal, called active from +8 up or from −8 down
Just the number.

Solved entries:
>  <compound>
C=CC[C@@]1(C(=O)N2CCOCC2)N=C(c2ccc(OCCCO)cc2)O[C@@H]1c1ccccc1

>  <reading>
-0.871

$$$$
>  <compound>
C=CCNC(=O)[C@H]1[C@@H]2C(=O)O[C@@H](c3ccccc3)[C@@H](c3ccccc3)N2[C@@H](c2ccccc2OCCO)[C@]12C(=O)N(C(=O)OCCOC)c1ccc(C#CCNC(N)=O)cc12

>  <reading>
-0.963

$$$$

Ask: So what does the record say about z-score for C=CCOC(=O)[C@@H]1[C@H]2C(=O)O[C@H](c3ccccc3)[C@H](c3ccccc3)N2[C@H](c2ccc(OCCOC(=O)[C@H]3C[C@H]4C(=O)N[C@@H](CCCCNC(C)=O)C(=O)N4[C@H]3c3ccc(O)cc3)cc2)[C@@]12C(=O)Nc1ccc(I)cc12 ?
Reply: -0.608

Ask: So what does the record say about z-score for COC(=O)C(CC#Cc1ccc2c(c1)[C@]1(C(=O)N2)[C@H](C(=O)N2CCCCCCC2)[C@H]2C(=O)O[C@H](c3ccccc3)[C@H](c3ccccc3)N2[C@@H]1c1ccc(O)cc1)C(=O)OC ?
Reply: -0.269

Ask: So what does the record say about z-score for O=C1c2ccccc2[C@](Cc2ccccc2I)(C(=O)O)[C@H](c2ccc(CO)cc2)N1C1CCCCC1 ?
Reply: -0.757

Ask: So what does the record say about z-score for CC(=O)NCCCC[C@@H]1NC(=O)[C@H]2C[C@@H](C(=O)NCCCCCCN(C)C)[C@@H](c3ccc(O)cc3)N2C1=O ?
Reply: 0.0866

Ask: So what does the record say about z-score for CN(C)CCCC[C@@H]1NC(=O)[C@@H]2C[C@H](C(=O)O)[C@H](c3ccc(O)cc3)N2C1=O ?
Reply: -0.486

----------
Listed next: entries and their corresponding composite z-score.
- experiment-description: small-molecule microarray binders of probe aLefty2, primary screen, biochemical, biotinylated probe, 635/667 nm fluorescence (AID 1094);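 note: score merges spot fluorescence near 667 nm with spot signal-to-noise ratio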
- conditions-used: higher = more signal

Solved entries:
>  <smiles-entry>
COC(=O)[C@@]1(Cc2ccc(OC)cc2)[C@H]2c3cc(C(=O)N(C)C)n(CCc4ccc(OC)c(Br)c4)c3C[C@H]2CN1C(=O)c1ccccc1

>  <composite z-score>
0.903

$$$$
>  <smiles-entry>
C[C@]1(C(=O)NCc2ccccc2)c2ccccc2C(=O)N(Cc2cc(C(F)(F)F)cc(C(F)(F)F)c2)[C@H]1c1ccc(CO)cc1

>  <composite z-score>
0.339

$$$$
>  <smiles-entry>
CO[C@H]1COC(=O)[C@@H](OCc2ccccc2)C=C[C@H](C)[C@@H](OC)COC(=O)[C@H](OCc2ccccc2)C=C[C@@H]1C

>  <composite z-score>
-0.462

$$$$

Alright, here's another molecule for you.
Ask: So what does the record say about composite z-score for O=C1O[C@H](c2ccccc2)[C@H](c2ccccc2)N2[C@H]1[C@@H](C(=O)Nc1nc3ccccc3s1)[C@]1(C(=O)Nc3ccc(C#CC4(O)CCCCCC4)cc31)[C@H]2c1ccc(O)cc1 ?
Reply: 0.11

----------
- experiment-description: small-molecule binders of probe aNOTCH3, primary screen, biochemical, small-molecule microarray, 635/667 nm fluorescence (AID 1120);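 note: probe is a biotin-tagged antibody raised against NOTCH3 rather than NOTCH3 protein; score merges spot fluorescence near 667 nm with spot signal to noise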
- conditions-used: higher = more signal
assay-metric: composite z-score
Just the number.

>  <compound>
CC(C)N1CC=CC23O[C@@H]4/C=C\CCCOC(=O)C4[C@H]2C(=O)N(CCO)[C@@H]3C1=O (stereo partly drawn)

>  <composite z-score>
-0.0918

$$$$
>  <compound>
O=C1O[C@H](c2ccccc2)[C@H](c2ccccc2)N2[C@H]1[C@@H](C(=O)Nc1nc3ccccc3s1)[C@]1(C(=O)Nc3ccc(C#CC4=CCCCC4)cc31)[C@H]2c1ccccc1OCCO

>  <composite z-score>
0.0452

$$$$

Alright, here's another compound for you.
Ask: So what does the record say about composite z-score for CCOC(=O)C1=CC[C@@H](c2ccc(-c3ccc(OCc4ccccc4)cc3)c(OC)c2)N(S(=O)(=O)c2ccc(C)cc2)[C@H]1c1ccccc1 ?
Reply: 0.349

----------
Listed next: entries and their corresponding composite z-score.
- target: Left-right determination factor 2 (Homo sapiens) (UniProt O00292)
- Sequence (O00292 whole entry, looked up): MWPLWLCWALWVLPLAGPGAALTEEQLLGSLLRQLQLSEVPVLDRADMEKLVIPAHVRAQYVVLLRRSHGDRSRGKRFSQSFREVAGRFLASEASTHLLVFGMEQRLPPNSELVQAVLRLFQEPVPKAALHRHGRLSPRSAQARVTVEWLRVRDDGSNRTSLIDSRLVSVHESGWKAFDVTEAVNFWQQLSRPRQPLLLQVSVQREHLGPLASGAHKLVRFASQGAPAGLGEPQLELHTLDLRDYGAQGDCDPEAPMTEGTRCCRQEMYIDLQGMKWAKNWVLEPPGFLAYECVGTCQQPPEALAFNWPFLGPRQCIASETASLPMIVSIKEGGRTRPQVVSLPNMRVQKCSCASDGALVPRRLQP
- experiment-description: LEFTY2 binders on small-molecule microarrays, primary screen, biochemical, small-molecule microarray, 635 nm fluorescence scan (AID 1110)
- conditions-used: LEFTY2 binding, higher = more signal
Just the number.

Ask: So what does the record say about composite z-score for C=CCNC(=O)[C@@H]1[C@H]2C(=O)O[C@H](c3ccccc3)[C@H](c3ccccc3)N2[C@H](c2ccc(OCCO)cc2)[C@@]12C(=O)N(C(=O)OCCOC)c1ccc(C#CC3(O)CCCCCC3)cc12 ?
Reply: 0.507

Ask: So what does the record say about composite z-score for Cc1ccc(S(=O)(=O)c2cc3oc2CC[C@@H](CO)NC(=O)N(C)Cc2cn(nn2)C[C@H](Cc2ccccc2)NC3=O)cc1 ?
Reply: -0.587

----------
- experiment-description: basal MM1S mitochondrial membrane potential changes, profiling panel, cell-based, JC-1 fluorescence, 24 h, 100 nL compound (AID 1170); note: test concentration not given here
- conditions-used: higher = more signal
// rule not met strictly below 0.2 in z-score; rule met otherwise

>  <compound>
CO[C@H]1O[C@H](CO)[C@@H](OC(=O)CCc2ccccc2)[C@@H]2OC(=O)[C@H](Cc3cccc(Br)c3)C/C=C/C[C@@H](Cc3cccc(Br)c3)C(=O)O[C@@H]12

>  <qualitative-label>
rule met

$$$$
>  <compound>
O=C1C2C=CC(C(O)C#Cc3ccccc3)N(Nc3ccccc3)C2C(=O)N1c1ccccc1 (stereo not given)

>  <qualitative-label>
rule not met

$$$$
>  <compound>
COCCCNC(=O)[C@@]1(Sc2ccc(C)cc2)CC(=O)N(Cc2cc(C(F)(F)F)cc(C(F)(F)F)c2)[C@@H]1c1ccc(CO)cc1I

>  <qualitative-label>
rule not met

$$$$
>  <compound>
COc1ccc(-c2ccccc2[C@@H]2N[C@H](C(=O)O)CC[C@H]2C)cc1

>  <qualitative-label>
rule met

$$$$
>  <compound>
CO[C@H]1COC(=O)[C@H](C)COC(=O)[C@H](Cc2ccccc2)NC(=O)CC=C[C@H]1C

>  <qualitative-label>
rule met

$$$$
>  <compound>
CC(C)=C1C(=O)C(c2ccccc2)=C2CN3C(=O)N(CCc4ccccc4)C(=O)[C@]3(Cc3ccccc3)[C@H]21

>  <qualitative-label>
rule not met

$$$$

Ask: Decide: z-score of C=CC[C@]1(C(N)=O)N=C(c2ccc(OCCCO)cc2)O[C@H]1c1ccccc1CN=[N+]=[N-] >= 0.2?
Reply: rule met

Ask: Decide: z-score of O=C(CS)NCCCCCCNC(=O)[C@@H]1C[C@@H]2C(=O)N[C@@H](Cc3ccccc3)C(=O)N2[C@@H]1c1ccc(O)cc1 >= 0.2?
Reply: rule not met

Ask: Decide: z-score of CC(=O)NCCCC[C@@H]1NC(=O)[C@@H]2C[C@H](C(=O)NCCCCCNC(=O)CS)[C@H](c3ccc(O)cc3)N2C1=O >= 0.2?
Reply: rule not met

Ask: Decide: z-score of C[N+](C)(C)CCCCNC(=O)[C@H]1C[C@H]2C(=O)NCC(=O)N2[C@H]1c1cccc(OCCO)c1 >= 0.2?
Reply: rule not met

Ask: Decide: z-score of COCCCNC(=O)[C@@H]1c2ccccc2C(=O)N(CC23CC4CC(CC(C4)C2)C3)[C@H]1c1ccc(CO)cc1 >= 0.2?
Reply: rule not met

Ask: Decide: z-score of COc1ccc([Si](C)(C)[C@@H]2[C@@H](CCO)O[C@]3(C(=O)N(Cc4ccccc4)c4ccccc43)[C@H]2C)cc1 >= 0.2?
Reply: rule met

Ask: Decide: z-score of O=C1c2ccccc2[C@](Cc2ccccc2I)(C(=O)NCc2ccccc2)[C@H](c2ccc(CO)cc2)N1Cc1ccccc1C(F)(F)F >= 0.2?
Reply: rule met

Ask: Decide: z-score of [N-]=[N+]=NCc1ccccc1C[C@@]1(C(=O)N2CCOCC2)N=C(c2ccc(OCCCO)cc2)O[C@@H]1c1ccccc1N=[N+]=[N-] >= 0.2?
Reply: rule not met

Ask: Decide: z-score of Cc1ccc(S[C@]2(C(=O)NC(C)C)CC(=O)N(C3Cc4ccccc4C3)[C@@H]2c2ccc(CO)cc2)cc1 >= 0.2?
Reply: rule met

----------
- experiment-description: inhibitors of hydroxyurea-induced Chk1 phosphorylation, primary screen, imaging, HeLa, phospho-Chk1 nuclear intensity (AID 1187); note: test concentration not given here
- conditions-used: hydroxyurea-induced phospho-Chk1 immunofluorescence imaging, higher = more signal
// no (0) strictly below -0.2 in z-score; yes (1) otherwise

Worked examples, 4 compounds total:
>  <compound>
O=C(N1CCCCC1)[C@@]1(CCS(=O)(=O)c2ccccc2)N=C(c2ccc(OCCCO)cc2)O[C@H]1c1ccccc1

>  <qualitative-label>
no (0)

$$$$
>  <compound>
O=C1C[C@@](C(=O)NC2CC2)(c2ccc([N+](=O)[O-])cc2)[C@@H](c2ccc(CO)cc2I)N1CC12CC3CC(CC(C3)C1)C2

>  <qualitative-label>
no (0)

$$$$
>  <compound>
NC(=O)NCC#Cc1ccc2c(c1)[C@]1(C(=O)N2)[C@H](C(=O)N2CCCCCCC2)[C@H]2C(=O)O[C@H](c3ccccc3)[C@H](c3ccccc3)N2[C@@H]1c1ccccc1OCCO

>  <qualitative-label>
yes (1)

$$$$
>  <compound>
C=CCOC(=O)[C@@H]1[C@H]2C(=O)O[C@H](c3ccccc3)[C@H](c3ccccc3)N2[C@H](c2ccc(OCCOC(=O)[C@H]3C[C@H]4C(=O)N[C@@H](CCCCNC(C)=O)C(=O)N4[C@H]3c3ccc(O)cc3)cc2)[C@@]12C(=O)Nc1ccc(I)cc12

>  <qualitative-label>
no (0)

$$$$

Ask: Decide: z-score of CC(C)CN1C(=O)[C@@]2(Cc3ccccc31)c1ccccc1C(=O)N(C1CCCCC1)[C@H]2c1ccc(CO)cc1 >= -0.2?
Reply: no (0)

Ask: Decide: z-score of CC(=O)NCCCC[C@@H]1NC(=O)[C@H]2C[C@@H](C(=O)NCCCCCCN(C)C)[C@@H](c3ccc(O)cc3)N2C1=O >= -0.2?
Reply: yes (1)

Ask: Decide: z-score of CC(C)CNC(=O)[C@@]1(C)c2ccccc2C(=O)N(Cc2ccc(OC(F)(F)F)cc2)[C@H]1c1ccc(CO)cc1 >= -0.2?
Reply: yes (1)

Ask: Decide: z-score of O=C1O[C@H](c2ccccc2)[C@H](c2ccccc2)N2[C@H]1[C@@H](C(=O)NC[C@H](O)c1ccccc1)[C@]1(C(=O)Nc3ccc(C#CC4(O)CCCCCC4)cc31)[C@H]2c1ccc(OCCO)cc1 >= -0.2?
Reply: no (0)

Ask: Decide: z-score of Cc1ccc(N2C(=O)c3ccccc3[C@@H](C(=O)NCC(F)(F)F)[C@@H]2c2ccc(CO)cc2)nc1 >= -0.2?
Reply: yes (1)

Ask: Decide: z-score of CO[C@]12C=C(Br)[C@@H](C[C@@H]1c1ccccc1)[C@@]1(CO1)C2=O >= -0.2?
Reply: no (0)

Ask: Decide: z-score of C=CCOC(=O)[C@@H]1[C@H]2C(=O)O[C@H](c3ccccc3)[C@H](c3ccccc3)N2[C@H](c2ccc(OCCOC(=O)[C@H]3C[C@H]4C(=O)N5CCC[C@H]5C(=O)N4[C@H]3c3ccc(O)cc3)cc2)[C@@]12C(=O)Nc1ccccc12 >= -0.2?
Reply: yes (1)
